These entries and their values trace back to the Human Domainome abundance scans (Beltran et al. 2025).

Below is a list of entries, each paired with its recorded abundance fitness value.
B1: POU domain, class 2, transcription factor 2, residues 200 to 269; numbered along this chain, P09086 (parent)
chain: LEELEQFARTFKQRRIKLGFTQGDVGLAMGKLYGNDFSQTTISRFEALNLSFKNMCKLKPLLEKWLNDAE

Variants of: B1
Experiment: abundance fitness (aPCA) (normalised: wild type 0, dead -1); higher = more abundant; growth selection in yeast, the domain comes from the species named
Details: Homo sapiens
Please reply with the number alone, leaving off any unit.

{"input-sequence": "LEGLEQFARTFKQRRIKLGFTQGDVGLAMGKLYGNDFSQTTISRFEALNLSFKNMCKLKPLLEKWLNDAE", "abundance fitness": -0.154}
{"input-sequence": "LEELEQFPRTFKQRRIKLGFTQGDVGLAMGKLYGNDFSQTTISRFEALNLSFKNMCKLKPLLEKWLNDAE", "abundance fitness": -0.506}
{"input-sequence": "LEELEQFARTFKQRRIKLGFTQGDVGLAMGKLYGNDFSQTTISRFEALNLSFKNMCKLKPLLEKWLNDAT", "abundance fitness": -0.086}

The variant listed as LEELEQFCRTFKQRRIKLGFTQGDVGLAMGKLYGNDFSQTTISRFEALNLSFKNMCKLKPLLEKWLNDAE shows abundance fitness equal to 0.034

The variant listed as LEELEQFARTFKQRRIKLGFTQGDVGLAMGKLYGNDFSQYTISRFEALNLSFKNMCKLKPLLEKWLNDAE shows abundance fitness equal to 0.031

The variant listed as LEELEQFARTFKQRRIKLGFTQGDVGLAMGKLYGNDFSQTTISRFEALNLSFKNMCKLKPLLEKWLNDAA shows abundance fitness equal to -0.047

The variant listed as LEELEQFARTFKQRRIKLGFTQGDVGLAMGKLYGNDFSQITISRFEALNLSFKNMCKLKPLLEKWLNDAE shows abundance fitness equal to -0.285

The variant listed as LEELEQFARTFKQRRIKLGFTQGDVGLAMGKLYGNDFSQTTISRFEALNKSFKNMCKLKPLLEKWLNDAE shows abundance fitness equal to -0.658

The variant listed as LEELEQFARTFKQRRIKLGFTQGDVGLAMYKLYGNDFSQTTISRFEALNLSFKNMCKLKPLLEKWLNDAE shows abundance fitness equal to -0.051
